Answer each item with its documented optical density.
Target: T1, mouse ACVR2A (mouse, UniProt P27038 20-135, limits assumed); also: test concentration or dose not given here
T1 construct: coated antigen of the initial ELISA
T1 sequence (P27038 20-135 limits assumed): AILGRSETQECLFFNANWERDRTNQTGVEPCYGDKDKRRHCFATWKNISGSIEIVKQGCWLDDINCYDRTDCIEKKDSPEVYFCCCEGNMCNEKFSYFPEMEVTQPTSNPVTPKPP
Experiment: ELISA
Answers are plain numbers, in OD.

373_C07 (antibody, V domains shown, Group III) VH: EVQLLESGGGLVQPGGSLRLSCAASGFTFDSYSMNWVRQAPGKGLEWVAGINYNSGYTSYADSVKGRFTISRDNSKNTLYLQMNSLRAEDTAVYYCARGANWHDTHLDYWGQGTLVTVSS VL: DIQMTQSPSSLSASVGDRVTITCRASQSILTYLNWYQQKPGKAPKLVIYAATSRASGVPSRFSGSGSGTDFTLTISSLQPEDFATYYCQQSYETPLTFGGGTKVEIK
3.58
375_H05 (antibody, V domains shown, Group III) VH: EVQLLESGGGLVQPGGSLRLSCAASGFTFSSYSMNWVRQAPGKGLEWVSNINYNGGYTGYADSVKGRFTISRDNSKNTLYLQMNSLRAEDTAVYYCARGANWHDTALDYWGQGTLVTVSS VL: DIQMTQSPSSLSASVGDRVTITCRASQSILSYVNWYQQKPGKAPKLLIYAATSRASGVPSRFSGSGSGTDFTLTISSLQPEDFATYYCQQSYDTPLTFGGGTKVEIK
3.33

The binder listed as 367_A12 (antibody, V domains shown, Group III) VH: EVQLLESGGGLVQPGGSLRLSCAASGFTFSSYGMNWVRQAPGKGLEWVSGINYNSGYTSYADSVKGRFTISRDNSKNTLYLQMNSLRAEDTAVYYCARGANWHDTHLDYWGQGTLVTVSS VL: DIQMTQSPSSLSASVGDRVTITCRASQSILSYLNWYQQKPGKAPKLLIYAATSLHSGVPSRFSGSGSGTDFTLTISSLQPEDFATYYCQQSYNNPLTFGGGTKVEIK shows optical density equal to 2.42
